- TESTED_ON: [^3 H]iloprost binding to human platelet membranes (Homo sapiens, UniProt P43119)
- Construct: Membranes were prepared from outdated platelet-rich plasma concentrates obtained from the Blood Transfusion Service
- Sequence (P43119 whole entry, the tested form may be a part): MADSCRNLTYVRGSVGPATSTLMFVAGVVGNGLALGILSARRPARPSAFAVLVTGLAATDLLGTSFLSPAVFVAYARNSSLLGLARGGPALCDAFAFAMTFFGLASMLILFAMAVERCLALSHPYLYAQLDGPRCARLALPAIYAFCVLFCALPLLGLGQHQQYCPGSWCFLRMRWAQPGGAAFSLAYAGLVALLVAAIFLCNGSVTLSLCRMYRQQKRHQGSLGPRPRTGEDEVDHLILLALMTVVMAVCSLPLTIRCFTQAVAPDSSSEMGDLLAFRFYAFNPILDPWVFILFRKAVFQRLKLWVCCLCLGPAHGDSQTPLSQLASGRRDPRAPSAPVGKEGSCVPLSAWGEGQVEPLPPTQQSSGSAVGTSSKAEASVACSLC
- METHOD: Inhibition of [^3 H]iloprost binding to human platelet membranes
- PROTOCOL_CONDITIONS: [^3 H]iloprost 10 nM; pH 7.4; 30 min at 37° C.; calculated from IC50 for displacement
MEASURED_QUANTITY: pKi
For clarity, pKi is expressed as the negative log10 of concentration in mol/L.

MOLECULE	READING
O=c1n(CCCCCCCS(=O)(=O)O)c(-c2ccccc2)c(-c2ccccc2)n1-c1ccccc1	5.10
O=c1n(CCCCCCCP(=O)(O)O)c(-c2ccccc2)c(-c2ccccc2)n1-c1ccccc1	5.89
CCOP(C)(=O)CCCCCCCn1c(-c2ccccc2)c(-c2ccccc2)n(-c2ccccc2)c1=O (stereo not shown)	4.72

Turning now to a further molecule:
Challenge: So what does the record say about pKi for CCOP(=O)(CCCCCCCn1c(-c2ccccc2)c(-c2ccccc2)n(-c2ccccc2)c1=O)OCC ?
Response given: 4.52
